Lab note: IC50 readings collected with TrkC kinase (Homo sapiens) for the following compounds.

CCOc1ccc(Nc2ncc(Cc3c[nH]c4ncc(C)cc34)cn2)cc1 [Compound P-3026]    < 0.1 µM

For each of the compounds below, state IC50.
1. COc1ccc(Nc2ncc(Cc3c[nH]c4ncc(C)cc34)cn2)cc1 [Compound P-3021]
2. Cc1cnc2[nH]cc(Cc3cnc(Nc4ccc(C(C)(C)C)cc4)nc3)c2c1 [Compound P-3030]

["< 1 µM", "< 0.01 µM"]

Dear reader, for each entry below, please note its IC50.
1. CCn1ccc(Nc2ncc(Cc3c[nH]c4ncc(C)cc34)cn2)n1 [Compound P-3035]
2. COc1ccc(Nc2ccc(Cc3c[nH]c4ncnc(C)c34)c(F)n2)cn1 [Compound P-4002]
3. Cc1cnc2[nH]cc(Cc3cnc(Nc4ccc(C(O)(C(F)(F)F)C(F)(F)F)cc4)nc3)c2c1 [Compound P-3031]
4. CCOc1ccc(Nc2ncc(Cc3c[nH]c4ncc(C)cc34)cn2)cn1 [Compound P-3027]
5. CSc1ccc(Nc2ncc(Cc3c[nH]c4ncc(C)cc34)cn2)cc1 [Compound P-3033]

["< 1 µM", "< 1 µM", "< 0.1 µM", "< 0.1 µM", "< 0.1 µM"]

* * *

# study_target: BCR-NTRK3 BaF3 cells (Homo sapiens)
# Construct: fused on or other part: P11274 (Breakpoint cluster region protein)
# Sequence (Q16288 whole entry, the tested form may be a part): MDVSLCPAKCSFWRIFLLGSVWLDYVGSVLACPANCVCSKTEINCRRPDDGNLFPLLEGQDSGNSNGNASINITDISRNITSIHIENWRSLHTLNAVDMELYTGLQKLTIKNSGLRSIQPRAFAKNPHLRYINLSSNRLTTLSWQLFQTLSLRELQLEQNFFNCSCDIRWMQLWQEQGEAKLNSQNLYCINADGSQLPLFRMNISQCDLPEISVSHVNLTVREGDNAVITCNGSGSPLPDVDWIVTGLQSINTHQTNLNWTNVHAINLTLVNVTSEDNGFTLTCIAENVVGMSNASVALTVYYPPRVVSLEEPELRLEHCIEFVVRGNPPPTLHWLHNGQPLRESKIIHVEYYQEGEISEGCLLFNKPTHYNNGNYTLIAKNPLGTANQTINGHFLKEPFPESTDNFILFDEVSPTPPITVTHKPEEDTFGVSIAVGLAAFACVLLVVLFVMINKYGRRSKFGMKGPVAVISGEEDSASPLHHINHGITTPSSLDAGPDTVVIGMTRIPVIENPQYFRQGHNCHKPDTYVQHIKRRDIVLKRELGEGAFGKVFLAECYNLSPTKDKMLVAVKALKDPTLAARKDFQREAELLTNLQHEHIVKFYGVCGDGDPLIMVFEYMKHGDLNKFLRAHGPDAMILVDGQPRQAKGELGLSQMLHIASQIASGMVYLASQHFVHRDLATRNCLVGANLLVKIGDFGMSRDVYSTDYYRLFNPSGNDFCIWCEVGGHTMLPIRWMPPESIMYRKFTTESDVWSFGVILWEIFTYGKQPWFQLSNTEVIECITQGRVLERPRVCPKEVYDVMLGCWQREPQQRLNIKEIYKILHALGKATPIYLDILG
# procedure_details: BaF3 BCR-NTRK3 cell proliferation assay (ATPlite)
# run_conditions: read-out: Inhibition of Cell Proliferation IC50, BCR/BaF3 TrkC
quantity_kind: IC50

CCc1ccc(Nc2ncc(Cc3c[nH]c4ncc(C)cc34)cn2)cc1    < 10 nM
COc1ccc(Nc2ccc(Cc3c[nH]c4ncnc(C)c34)c(F)n2)cn1    < 100 nM
O=C(c1ccc(Nc2ccc(C3CC3)nc2)nc1F)c1c[nH]c2ncccc12    < 10 nM
Clc1cnc2[nH]cc(Cc3cnc(Nc4ccccc4Cl)nc3)c2c1    > 10000 nM

// batch mode: one IC50 value per listed entry
1. CCn1cc(Nc2ccc(Cc3c[nH]c4ncnc(OCCOC)c34)c(F)n2)cn1
2. CCn1cc(Nc2ccc(Cc3c[nH]c4ncnc(C5CC5)c34)c(F)n2)cn1
3. CCCNc1ncnc2[nH]cc(C(=O)c3ccc(Nc4ccc(OC)nc4)nc3F)c12
4. CCOc1ncnc2[nH]cc(Cc3ccc(Nc4cccnc4)nc3F)c12

1. < 1000 nM
2. < 100 nM
3. < 10 nM
4. < 1000 nM

* * *

# study_target: BCR-FMS BaF3 cells (Homo sapiens)
# Construct: fused on or other part: P11274 (Breakpoint cluster region protein)
# Sequence (P07333 582-910): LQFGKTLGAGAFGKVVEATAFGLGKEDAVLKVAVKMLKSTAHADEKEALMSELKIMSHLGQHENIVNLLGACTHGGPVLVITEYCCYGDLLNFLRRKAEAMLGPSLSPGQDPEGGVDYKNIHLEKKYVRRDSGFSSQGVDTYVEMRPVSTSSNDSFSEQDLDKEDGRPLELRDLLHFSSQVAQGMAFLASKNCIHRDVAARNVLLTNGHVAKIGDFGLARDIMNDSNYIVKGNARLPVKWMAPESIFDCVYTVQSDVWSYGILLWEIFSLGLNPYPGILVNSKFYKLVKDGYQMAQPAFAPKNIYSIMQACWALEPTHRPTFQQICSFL
# procedure_details: BaF3 BCR-FMS cell proliferation assay (ATPlite)
# run_conditions: read-out: Inhibition of Cell Proliferation IC50, BCR/BaF3 Fms
pIC50: −log10 of the molar value.
quantity_kind: pIC50

Consider the following illustrative entries.
CCCCNc1ncnc2[nH]cc(C(=O)c3ccc(Nc4ccc(CC)nc4)nc3F)c12    > 7.00
COc1ccc(Nc2ccc(C(=O)c3c[nH]c4ncnc(NC5CCCCC5)c34)c(F)n2)cn1    > 8.00
Fc1ccc(Nc2ncc(Cc3c[nH]c4ncc(Cl)cc34)cn2)cc1    > 7.00
CCCNc1ncnc2[nH]cc(C(=O)c3ccc(Nc4ccc(CC)nc4)nc3F)c12    > 8.00

Give me pIC50 for each of these compounds, listed below.
1. CCOc1ncnc2[nH]cc(Cc3ccc(Nc4ccc(OC)nc4)nc3F)c12
2. Cc1cnc2[nH]cc(Cc3cnc(Nc4cc(C(C)(C)C)n[nH]4)nc3)c2c1
3. O=C(c1ccc(NC2CCC(F)(F)CC2)nc1F)c1c[nH]c2ncnc(NC3CC3)c12
4. CCOc1ncnc2[nH]cc(Cc3ccc(Nc4ccc(Br)nc4)nc3F)c12

1. > 8.00
2. > 7.00
3. > 7.00
4. > 7.00

* * *

# study_target: BCR-KIT BaF3 cells (Homo sapiens)
# Construct: fused on or other part: P11274 (Breakpoint cluster region protein)
# Sequence (P10721 589-937): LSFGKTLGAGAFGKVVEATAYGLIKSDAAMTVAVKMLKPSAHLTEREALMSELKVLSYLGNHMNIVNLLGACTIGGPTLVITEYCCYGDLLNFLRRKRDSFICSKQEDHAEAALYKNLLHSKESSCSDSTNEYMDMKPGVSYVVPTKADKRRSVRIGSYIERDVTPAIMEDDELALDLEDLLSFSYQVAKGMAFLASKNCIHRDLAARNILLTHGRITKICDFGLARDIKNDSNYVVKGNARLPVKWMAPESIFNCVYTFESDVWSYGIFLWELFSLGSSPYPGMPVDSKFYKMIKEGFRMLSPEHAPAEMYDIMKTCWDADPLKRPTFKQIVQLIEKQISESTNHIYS
# procedure_details: BaF3 BCR-KIT cell proliferation assay (ATPlite)
# run_conditions: read-out: Inhibition of Cell Proliferation IC50, BCR/BaF3 Kit
Task for the reader: assign each of the following compounds its reported IC50.

Nc1ncnc2[nH]cc(C(=O)c3ccc(Nc4ccc(C5CC5)nc4)nc3F)c12 [Compound P-4048]    < 1000 nM

Hello, I would appreciate it if you could give IC50 for each entry below.
1. CCOc1ccc(Nc2ccc(C(=O)c3c[nH]c4ncnc(C)c34)c(F)n2)cn1 [Compound P-4032]
2. CCc1ccc(Nc2ccc(C(=O)c3c[nH]c4ncnc(NCC5CC5)c34)c(F)n2)cn1 [Compound P-4118]
3. CCNc1ncnc2[nH]cc(C(=O)c3ccc(NC4CCC(F)(F)CC4)nc3Cl)c12 [Compound P-4050]
4. COCCOc1ncnc2[nH]cc(Cc3ccc(Nc4ccc(OC)nc4)nc3F)c12 [Compound P-4019]

1. < 1000 nM
2. < 100 nM
3. > 1000 nM
4. < 1000 nM

Hey, quick one: what's IC50 for each of these?
1. COc1ccc(Nc2ccc(C(=O)c3c[nH]c4ncnc(N5CCOCC5)c34)c(F)n2)cn1 [Compound P-4070]
2. CCOc1ncnc2[nH]cc(Cc3ccc(Nc4ccc(C)nc4)nc3F)c12 [Compound P-4017]

1. > 1000 nM
2. < 1000 nM

Need IC50 for each of these compounds.
1. Cc1ccc(Nc2ccc(C(=O)c3c[nH]c4ncc(Cl)cc34)c(F)n2)cn1 [Compound P-3044]
2. Fc1nc(Nc2ccc(C3CC3)nc2)ccc1Cc1c[nH]c2ncnc(C3CC3)c12 [Compound P-4041]
3. CCCCNc1ncnc2[nH]cc(C(=O)c3ccc(Nc4ccc(CC)nc4)nc3F)c12 [Compound P-4100]
4. O=C(c1ccc(Nc2ccc(C3CC3)nc2)nc1F)c1c[nH]c2ncnc(C3CC3)c12 [Compound P-4040]

< 1000 nM
< 100 nM
< 1000 nM
< 100 nM

Look up IC50 for the entries below, preserving their order.
1. COc1ccc(Nc2ccc(C(=O)c3c[nH]c4ncnc(NCC(F)(F)F)c34)c(F)n2)cn1 [Compound P-4084]
2. O=C(c1ccc(Nc2ccc(C3CC3)nc2)nc1F)c1c[nH]c2ncnc(NCC(F)(F)F)c12 [Compound P-4090]
3. CSc1ccc(Nc2ncc(Cc3c[nH]c4ncc(C)cc34)cn2)cc1 [Compound P-3033]
4. O=C(c1cnc(NC2CCC(F)(F)CC2)c(F)c1)c1c[nH]c2ncnc(NCC(F)(F)F)c12 [Compound P-4052]
5. Cc1cnc2[nH]cc(C(=O)c3ccc(Nc4ccc(C5CC5)nc4)nc3F)c2c1 [Compound P-3051]

["< 1000 nM", "< 1000 nM", "< 10 nM", "> 1000 nM", "< 1000 nM"]

* * *

# study_target: BCR-NTRK1 BaF3 cells (Homo sapiens)
# Construct: fused on or other part: P11274 (Breakpoint cluster region protein)
# Sequence (P04629 510-781): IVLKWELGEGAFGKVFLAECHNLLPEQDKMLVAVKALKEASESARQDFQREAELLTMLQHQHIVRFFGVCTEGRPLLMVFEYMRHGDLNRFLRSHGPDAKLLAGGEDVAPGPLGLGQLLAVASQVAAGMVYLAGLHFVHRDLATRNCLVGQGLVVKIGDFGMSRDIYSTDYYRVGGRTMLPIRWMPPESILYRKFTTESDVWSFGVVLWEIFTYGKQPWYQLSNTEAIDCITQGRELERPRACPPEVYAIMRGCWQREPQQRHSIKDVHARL
# procedure_details: BaF3 BCR-NTRK1 cell proliferation assay (ATPlite)
# run_conditions: read-out: Inhibition of Cell Proliferation IC50, BCR/BaF3 TrkA
pIC50: −log10 of the molar value.
quantity_kind: pIC50

Below, each entry is followed by its recorded pIC50 result.
CCNc1ncnc2[nH]cc(C(=O)c3ccc(NC4CCC(F)(F)CC4)nc3Cl)c12    > 6.00
CCc1ccc(Nc2ncc(Cc3c[nH]c4ncc(C)cc34)cn2)cc1    > 8.00
Fc1nc(NC2CCC(F)(F)CC2)ccc1Cc1c[nH]c2ncc(Cl)cc12    < 5.00

Could I get pIC50 for every one of these entries?
1. CCCNc1ncnc2[nH]cc(C(=O)c3ccc(Nc4ccc(C)nc4)nc3F)c12
2. Fc1ccc(Nc2ncc(Cc3c[nH]c4ncc(Cl)cc34)cn2)cc1
3. CCc1ccc(Nc2ccc(C(=O)c3c[nH]c4ncnc(NCC(C)(C)O)c34)c(F)n2)cn1
4. CCCOc1ccc(Nc2ncc(Cc3c[nH]c4ncc(C)cc34)cn2)cc1
5. O=C(c1ccc(NC2CCC(F)(F)CC2)nc1F)c1c[nH]c2ncnc(NC3CC3)c12
6. COc1ccc(Nc2ccc(C(=O)c3c[nH]c4ncnc(NCC(F)(F)F)c34)c(F)n2)cn1
7. CCc1ccc(Nc2ccc(C(=O)c3c[nH]c4ncnc(NC5CCC(F)(F)CC5)c34)c(F)n2)cn1
8. Clc1cnc2[nH]cc(Cc3cnc(NC4CCCCCC4)nc3)c2c1

> 8.00
> 6.00
> 7.00
> 6.00
> 8.00
> 7.00
> 8.00
> 4.70
